Where do these numbers come from? They come from PubChem BioAssay (NCI).

System: HCT-116 colon
Experiment: NCI tumour cell line growth inhibition, 48 h
Form field: TGI (one value per entry).
Please respond with the number in µM and leave the unit unwritten.

>>> experimental_value("CCOC(=O)C1=C(O)CSC1=Nc1ccc(N=C2SCC(O)=C2C(=O)OCC)cc1")
35.2

Pending molecule:
Inquiry: Any idea what TGI was measured for COc1cc(C2c3cc4c(cc3[C@@H](OCCN)[C@H]3COC(=O)C23)OCO4)cc(OC)c1O (stereo not given in full) ?
Reply text: 4.89

* * *

Tested on: HOP-18 NSCLC
Assay: NCI tumour cell line growth inhibition, 48 h
Each entry below carries its reported TGI.

Some solved entries appear below for comparison.
>>> experimental_value("NC(=O)OCc1c(O)c2c(c(O)c1COC(N)=O)C(=O)C=CC2=O")
"> 100 µM"
>>> experimental_value("NC(N)=NCCCS(=O)(=O)Nc1ccc(Nc2c3ccccc3nc3cc([N+](=O)[O-])ccc23)cc1")
"58.7 µM"
>>> experimental_value("COc1cc(C2c3cc4c(cc3[C@@H](OCCN)[C@H]3COC(=O)C23)OCO4)cc(OC)c1O (stereo not given in full)")
"> 100 µM"
>>> experimental_value("COc1ccc(C(=O)Nc2ccccc2C#N)cc1")
"> 100 µM"
>>> experimental_value("CC(C)c1cccc(C(C)C)c1NC(=S)Nc1ccccc1")
"> 100 µM"
>>> experimental_value("COc1ccc(C2C(Cl)C(=O)N2NC(=O)c2ccc(NC(C)=O)cc2)cc1OC (stereo not given)")
"> 100 µM"
>>> experimental_value("COC(=O)[C@@]12C3=NO[C@]1(C(=O)OC)C(O[Si](C)(C)C(C)(C)C)C1OC(C)(C)OC1[C@@H]2[C@@H](OCc1ccccc1)CC3 (stereo not given in full)")
"> 100 µM"
>>> experimental_value("Nc1ccc(C(=O)O)c2[nH]c3ccccc3c(=O)c12")
"> 100 µM"
>>> experimental_value("O=[N+]([O-])c1ccc(N=Nc2c(O)[nH]c3ccc(Br)cc23)c([N+](=O)[O-])c1")
"4.69 µM"

Now consider the entry below.
Inquiry: Recorded TGI of O=C1/C(=C/c2ccccc2Cl)COc2ccccc21 , please.
Reply text: 24 µM

* * *

Tested on: DU-145 prostate
Assay: NCI tumour cell line growth inhibition, 48 h
quantity-measured: TGI

Recorded TGI, per entry:
>>> experimental_value("COC(=O)/C=C1/OC(c2ccccc2)=CC1=O")
"19.4 µM"
>>> experimental_value("CC1=NN(c2ccccc2Cl)C2(C1)SCC(=O)N2c1nc2ccccc2s1 (stereo unspecified)")
"> 100 µM"
>>> experimental_value("O=S(=O)(Nc1ccc2ccc3cccc4ccc1c2c34)c1ccccc1")
"> 100 µM"

Inquiry: So what TGI did COC1(CCO)CC=CCC1(CCO)OC (stereo unspecified) get with DU-145 prostate?
Reply text: > 100 µM

Inquiry: What do you have for C=C1CCC2C3(C)COC(c4cccc(Cl)c4)OC3CCC2(C)C1/C=C/C1=CCOC1=O (stereo unspecified) ?
Reply text: > 100 µM

Inquiry: Let us now turn to C=CCSC1=N/C(=C\c2ccco2)C(=O)N1CC=C
Reply text: > 100 µM

* * *

System: HOP-62 NSCLC
Test: NCI tumour cell line growth inhibition, 48 h
quantity-measured: TGI (µM)
Report as a plain number; the unit µM is understood.

Worked set:
>>> experimental_value("CCOP(=O)(OCC)OC1CC(n2cnc3c(N(CC)CC)ncnc32)OC1CO[Si](C)(C)C(C)(C)C (configuration not stated)")
34
>>> experimental_value("CC1=C(C(=O)Nc2cc(F)c(F)cc2F)C(c2cccc([N+](=O)[O-])c2)C(C(=O)Nc2ccccc2C(F)(F)F)=C(C)N1 (configuration not stated)")
54.5
>>> experimental_value("Cc1ccc(S(=O)(=O)OC(C=O)C(O)C(O)COC(c2ccccc2)(c2ccccc2)c2ccccc2)cc1 (configuration not stated)")
30.8
>>> experimental_value("N=C(N)c1ccc(-c2ccc(-c3ccccc3)o2)cc1")
5.13

Inquiry: TGI of OCCC#Cc1ccccc1C#Cc1ccccc1 on HOP-62 NSCLC?
Reply text: 33.9

Inquiry: Request: N#Cc1c(-c2ccccc2)cc(Nc2ccc(F)cc2)n2c1nc1ccccc12
Reply text: 40.8

Inquiry: Please give the result for C=C(CNCCc1ccc(O)cc1)[C@@H]1CC[C@]2(CO)CC[C@]3(C)[C@H](CC[C@@H]4[C@@]5(C)CCC(NCCO)C(C)(C)[C@@H]5CC[C@]43C)[C@@H]12 (some centres not stated) too.
Reply text: 3.23
